Value source: ChEMBL document CHEMBL1140325

Target: 3-beta-hydroxysteroid-Delta(8),Delta(7)-isomerase (Homo sapiens, UniProt Q15125)
Sequence (Q15125 whole entry): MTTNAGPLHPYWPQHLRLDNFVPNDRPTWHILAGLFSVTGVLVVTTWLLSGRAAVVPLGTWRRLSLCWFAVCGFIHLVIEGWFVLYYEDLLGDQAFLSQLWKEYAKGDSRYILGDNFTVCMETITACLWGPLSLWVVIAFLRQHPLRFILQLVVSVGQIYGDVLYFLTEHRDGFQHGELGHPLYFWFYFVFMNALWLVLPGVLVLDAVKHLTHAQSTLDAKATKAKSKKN
Assay: Affinity for human EMP expressed in ERG2 deficient strain of Saccharomyces cerevisiae using [3H]ifenprodil or (+)-[3H]pentazocine as radioligand
pKi: −log10 of the molar value.
Overview of reported pKi across a group of compounds:
attributeMeasured: pKi

CN(c1nc2ccccc2s1)C1CCN(CCCCOc2ccccc2)C1 (stereo not given) :: 6.35
CN(C/C=C/c1ccccc1)Cc1cccc2ccccc12 :: 5.82
CC(C)[C@](C#N)(CCCN(C)CCc1ccccc1)c1ccccc1 :: 8.22
CC(Cc1ccc(C(C)(C)C)cc1)CN1C[C@@H](C)O[C@@H](C)C1 (stereo not given in full) :: 7.52
CC(C)[C@@](C#N)(CCCN(C)CCc1ccccc1)c1ccccc1 :: 7.74
CCCCN1CCC2(CCCc3ccccc32)CC1 :: 9.00
O=C(CCCN1CCC(O)(c2cccc(C(F)(F)F)c2)CC1)c1ccc(F)cc1 :: 6.78
CN1CCN(CCCN2c3ccccc3Sc3ccc(C(F)(F)F)cc32)CC1 :: 8.10
CCCN(CCC)CCc1ccc(OC)c(OCCc2ccccc2)c1 :: 7.82
CC(C)=CCN1CC[C@@]2(C)c3cc(O)ccc3CC1[C@H]2C :: 6.30
O=C(c1ccc(OCCN2CCCCC2)cc1)c1c(-c2ccc(O)cc2)sc2cc(O)ccc12 :: 9.00
CC/C(=C(/CC)c1ccc(OCCN(CC)CC)cc1)c1ccc(OCCN(CC)CC)cc1 :: 7.27
N=C(NCc1ccccc1)Nc1nc(-c2cc3ccccc3[nH]2)cs1 :: 5.07
CCCCCCCCCCCCC(C#N)(CCCN(C)CCc1ccccc1)c1ccccc1 (stereo not given) :: 8.70
CCCN1CCC[C@H](c2cccc(O)c2)C1 :: 5.66
CCCCCCCCCCCCCN1C[C@@H](C)O[C@@H](C)C1 :: 9.00
CCCCCCCOc1ccccc1NC(=O)OC(C)CN(CC)CC (stereo not given) :: 7.29
CCN(CC)CCOc1ccc(/C(=C(/Cl)c2ccccc2)c2ccccc2)cc1 :: 9.00

====

Target: C-8 sterol isomerase ERG2 (Saccharomyces cerevisiae S288c)
Sequence (P32352 whole entry): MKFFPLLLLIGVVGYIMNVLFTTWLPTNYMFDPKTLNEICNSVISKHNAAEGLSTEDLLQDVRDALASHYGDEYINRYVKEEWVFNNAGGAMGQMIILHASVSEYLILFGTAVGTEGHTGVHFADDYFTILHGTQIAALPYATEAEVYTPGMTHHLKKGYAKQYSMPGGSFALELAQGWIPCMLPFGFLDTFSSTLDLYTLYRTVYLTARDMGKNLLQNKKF
Test: Affinity for ERG2 of Saccharomyces cerevisiae using [3H]ifenprodil or (+)-[3H]pentazocine radioligand
Conditions: read-out: Ki
pKi: −log10 of the molar value.
Overview of reported pKi across a group of molecules:
attributeMeasured: pKi

CC(C)[C@](C#N)(CCCN(C)CCc1ccccc1)c1ccccc1 :: 7.19
CC1=C2C(=O)[C@H]3[C@@H](CC=C4C[C@@H](O)CC[C@@]43C)[C@@H]2CC[C@]12O[C@@H]1C[C@H](C)CN[C@H]1[C@H]2C :: 6.55
CCCCCCCOc1ccccc1NC(=O)OC(C)CN(CC)CC (stereo not given) :: 5.55
C[C@]12CC[C@H]3[C@@H](CCC4=CC(=O)CC[C@@]43C)[C@@H]1CC[C@@H]2O :: 5.11
CC(C)CCCC(C)CCCC(C)N1CC[C@H]2[C@H](C)[C@@H](O)CC[C@]2(C)C1 (stereo not given in full) :: 9.40
CCN(CC)CCOc1ccc(C(O)(Cc2ccc(Cl)cc2)c2ccc(C)cc2)cc1 (stereo not given) :: 8.70
CCCCCCCCCCCCC(C#N)(CCCN(C)CCc1ccccc1)c1ccccc1 (stereo not given) :: 7.89

====

Molecular target: C-8 sterol isomerase ERG2 (Saccharomyces cerevisiae S288c)
Experiment: Affinity for ERG2 of Saccharomyces cerevisiae using [3H]ifenprodil or (+)-[3H]pentazocine radioligand
Conditions: read-out: Ki
pKi: −log10 of the molar value.
Overview of reported pKi across a group of compounds:
attributeMeasured: pKi

C[C@]12C[C@H](O)[C@H]3[C@@H](CCC4=CC(=O)CC[C@@]43C)[C@@H]1CC[C@@H]2C(=O)CO [CORTICOSTERONE] :: < 4.00
C[C@H]1CCC2[C@@H](C)[C@H]3[C@H](C[C@H]4C5CC=C6C[C@@H](O)CC[C@]6(C)[C@H]5CC[C@]34C)N2C1 (single isomer, unassigned) :: < 4.00
CN(C/C=C/C#CC(C)(C)C)Cc1cccc2ccccc12 [TERBINAFINE] :: < 4.30
